Data origin: patent US20260053904A1

Measured EC50, listed per entry for reference.
# tested system: T1, recombinant human EpCAM extracellular domain (human, UniProt P16422 24-265)
# T1 construct: extracellular domain; Plate-coated antigen of the ELISAs; also called human EpCAM ECD; recombinant EpCAM antigen
# T1 sequence (looked up): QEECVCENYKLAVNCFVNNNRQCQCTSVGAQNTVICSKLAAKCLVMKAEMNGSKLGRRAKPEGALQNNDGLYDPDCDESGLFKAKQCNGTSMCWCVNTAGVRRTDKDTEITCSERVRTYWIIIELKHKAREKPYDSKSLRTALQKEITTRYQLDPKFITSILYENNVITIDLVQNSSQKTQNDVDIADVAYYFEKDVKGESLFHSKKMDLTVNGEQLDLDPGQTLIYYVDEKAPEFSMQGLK
# assay text: ELISA of MMAE conjugates, human EpCAM, pH 7.4
A number alone suffices; assume µg/mL.

Field: example entries. Status: answers known.
{"columns": ["binder", "assay value"],
 "data": [
  ["BA-105.4-02-01 8318-vcMMAE (antibody, V domains shown, antibody conjugated to vcMMAE; chain and residues of attachment not stated) VH: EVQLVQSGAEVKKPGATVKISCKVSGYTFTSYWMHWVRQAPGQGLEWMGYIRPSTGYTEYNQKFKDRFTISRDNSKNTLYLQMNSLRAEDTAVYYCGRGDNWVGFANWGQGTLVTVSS VL: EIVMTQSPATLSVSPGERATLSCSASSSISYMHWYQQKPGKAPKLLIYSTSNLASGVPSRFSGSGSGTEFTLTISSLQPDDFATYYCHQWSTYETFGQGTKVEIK", 0.22],
  ["BA-105-01-01 7376-vcMMAE (antibody, V domains shown, antibody conjugated to vcMMAE; chain and residues of attachment not stated) VH: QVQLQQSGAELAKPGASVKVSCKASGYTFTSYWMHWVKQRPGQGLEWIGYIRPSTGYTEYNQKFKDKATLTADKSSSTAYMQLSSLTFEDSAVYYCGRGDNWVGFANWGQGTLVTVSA VL: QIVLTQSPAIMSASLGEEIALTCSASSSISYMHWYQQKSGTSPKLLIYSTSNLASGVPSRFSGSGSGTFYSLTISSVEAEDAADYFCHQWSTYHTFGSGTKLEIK", 0.0147],
  ["BA-105.4-01-05 8317-vcMMAE (antibody, V domains shown, antibody conjugated to vcMMAE; chain and residues of attachment not stated) VH: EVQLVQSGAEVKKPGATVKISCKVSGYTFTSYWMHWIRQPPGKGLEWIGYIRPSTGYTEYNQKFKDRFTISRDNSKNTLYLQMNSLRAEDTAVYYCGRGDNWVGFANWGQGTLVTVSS VL: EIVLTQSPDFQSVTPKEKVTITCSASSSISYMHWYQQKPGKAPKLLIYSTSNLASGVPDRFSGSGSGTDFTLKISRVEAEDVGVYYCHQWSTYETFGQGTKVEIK", 0.0703]
]}

Retrieve EC50 measured for BA-105.4-01-02 8316-vcMMAE (antibody, V domains shown, antibody conjugated to vcMMAE; chain and residues of attachment not stated) VH: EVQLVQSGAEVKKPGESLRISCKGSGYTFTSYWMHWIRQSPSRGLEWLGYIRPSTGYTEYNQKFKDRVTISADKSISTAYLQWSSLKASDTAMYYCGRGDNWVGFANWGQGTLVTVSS VL: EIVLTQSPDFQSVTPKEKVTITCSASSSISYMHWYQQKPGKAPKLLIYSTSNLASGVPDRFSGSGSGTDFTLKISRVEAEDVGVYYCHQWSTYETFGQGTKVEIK and print it.
0.127
